TARGET UNDER TEST: T1, biotinylated His-14-3-3γ (UniProt P61981 1-247, biotin (EZ-Link sulfo-NHS-LC-biotin; sites not stated))
T1 sequence (looked up): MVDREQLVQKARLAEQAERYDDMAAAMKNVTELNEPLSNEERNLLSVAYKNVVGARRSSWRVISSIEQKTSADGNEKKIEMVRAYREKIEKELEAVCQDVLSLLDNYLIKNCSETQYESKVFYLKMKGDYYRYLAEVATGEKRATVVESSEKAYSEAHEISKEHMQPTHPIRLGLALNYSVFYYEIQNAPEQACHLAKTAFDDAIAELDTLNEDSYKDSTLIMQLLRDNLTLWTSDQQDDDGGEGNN
EXPERIMENT NOTES: AlphaScreen or HTRF
QUANTITY KIND: IC50

INSERT INTO measurements (binder, observed_result) VALUES
  ('PHCVPRDLSWLDLEANMCLP [untagged R18 peptide]', '28 nM');
